Parameter: IC50. Scope: all listed entries.
test_system: UniProtKB P48730
Sequence (P48730 whole entry): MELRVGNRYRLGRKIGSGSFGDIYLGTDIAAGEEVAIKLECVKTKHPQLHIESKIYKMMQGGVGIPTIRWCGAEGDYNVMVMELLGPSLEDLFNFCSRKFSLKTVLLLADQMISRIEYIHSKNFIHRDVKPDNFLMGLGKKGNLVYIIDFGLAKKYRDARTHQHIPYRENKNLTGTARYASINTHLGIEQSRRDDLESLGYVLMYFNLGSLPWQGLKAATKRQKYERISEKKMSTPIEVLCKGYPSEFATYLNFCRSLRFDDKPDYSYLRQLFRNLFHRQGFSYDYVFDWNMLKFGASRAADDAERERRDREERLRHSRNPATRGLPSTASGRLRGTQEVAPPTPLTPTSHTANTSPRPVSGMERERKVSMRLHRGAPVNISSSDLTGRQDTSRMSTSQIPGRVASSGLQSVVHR
assay_protocol: CK1δ inhibition IC50
Format: biochemical
measurement_setup: Table 4; read-out: CK1 d IC50
outcome_measure: IC50 (µM)

- line_notation: "Cn1cc(-c2ccnc(N)n2)c(-c2ccc(F)cc2)n1"
  outcome_measure: "IC50"
  readout_number: 0.0465
- line_notation: "CC1(C)CN(c2ccc3nc(-c4ccc(F)cc4)c(-c4ccncc4)n3n2)CCN1"
  outcome_measure: "IC50"
  readout_number: 0.0185
- line_notation: "Fc1ccc(-c2nn(CC(F)(F)F)cc2-c2ccnc3[nH]ccc23)cc1"
  outcome_measure: "IC50"
  readout_number: 0.0555
- line_notation: "CN1CCN(c2ccc3nc(-c4ccc(F)cc4)c(-c4ccncc4)n3n2)CC1"
  outcome_measure: "IC50"
  readout_number: 0.029

* * *

test_system: CK1α (Homo sapiens)
Sequence (P48729 whole entry): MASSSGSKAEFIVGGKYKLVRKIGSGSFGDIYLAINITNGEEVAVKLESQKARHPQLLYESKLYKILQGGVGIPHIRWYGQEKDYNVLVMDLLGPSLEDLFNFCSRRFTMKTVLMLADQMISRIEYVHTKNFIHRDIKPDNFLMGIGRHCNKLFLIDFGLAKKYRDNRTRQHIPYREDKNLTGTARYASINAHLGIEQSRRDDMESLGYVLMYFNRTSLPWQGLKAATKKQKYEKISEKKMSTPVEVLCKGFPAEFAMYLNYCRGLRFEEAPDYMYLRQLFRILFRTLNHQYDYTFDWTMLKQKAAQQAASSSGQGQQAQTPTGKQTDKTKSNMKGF
assay_protocol: CK1α inhibition IC50
Type: biochemical
measurement_setup: Table 6; read-out: IC50 CK1α
pIC50: −log10 of the molar value.

- compound: "Fc1ccc(-c2nc3ccc(N4CCOCC4)nn3c2-c2ccncc2)cc1 [Nr. 23]"
  test_system: "CK1α (Homo sapiens)"
  value_comparator: "<"
  pIC50: 5.00
- compound: "Cn1cc(-c2ccncc2)c(-c2ccc(F)cc2)n1 [Nr. 17]"
  test_system: "CK1α (Homo sapiens)"
  value_comparator: "="
  pIC50: 6.06
- compound: "CN1CCN(c2ccc3nc(-c4ccc(F)cc4)c(-c4ccncc4)n3n2)CC1 [Nr. 2]"
  test_system: "CK1α (Homo sapiens)"
  value_comparator: "="
  pIC50: 7.19
- compound: "Fc1ccc(-c2nc3ccc(N4CCC(N5CCCC5)CC4)nn3c2-c2ccncc2)cc1 [Nr. 14]"
  test_system: "CK1α (Homo sapiens)"
  value_comparator: "="
  pIC50: 6.57
- compound: "Fc1ccc(-c2nc3ccc(N4CCNC5(CC5)C4)nn3c2-c2ccncc2)cc1 [Nr. 21]"
  test_system: "CK1α (Homo sapiens)"
  value_comparator: "="
  pIC50: 7.21
- compound: "Cc1cc(-c2cn(C)nc2-c2ccc(F)cc2)ccn1 [Nr. 19]"
  test_system: "CK1α (Homo sapiens)"
  value_comparator: "="
  pIC50: 5.40
- compound: "Fc1ccc(-c2nc3sc(N4CCNCC4)nn3c2-c2ccncc2)cc1 [Nr. 24]"
  test_system: "CK1α (Homo sapiens)"
  value_comparator: "="
  pIC50: 6.48

* * *

test_system: p38α (Homo sapiens, UniProt Q16539)
Sequence (Q16539 whole entry): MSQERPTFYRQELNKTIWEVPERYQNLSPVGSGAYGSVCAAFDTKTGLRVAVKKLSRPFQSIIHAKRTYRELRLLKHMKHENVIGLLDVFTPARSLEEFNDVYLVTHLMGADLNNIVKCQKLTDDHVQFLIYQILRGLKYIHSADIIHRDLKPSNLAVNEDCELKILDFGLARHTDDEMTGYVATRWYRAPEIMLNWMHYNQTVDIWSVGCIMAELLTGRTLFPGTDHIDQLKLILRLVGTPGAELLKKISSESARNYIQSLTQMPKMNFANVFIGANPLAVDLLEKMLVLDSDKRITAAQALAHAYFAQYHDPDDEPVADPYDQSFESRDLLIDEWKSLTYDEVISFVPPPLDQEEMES
assay_protocol: p38α inhibition IC50
Format: biochemical
measurement_setup: Table 6; read-out: IC50 p38α
Parameter: IC50. Scope: all listed entries.

- compound: "Cn1cc(-c2ccnc(N)n2)c(-c2ccc(F)cc2)n1 [Nr. 18]"
  test_system: "p38α (Homo sapiens, UniProt Q16539)"
  IC50: "0.312 µM"
- compound: "Fc1ccc(-c2nc3sc(N4CCNCC4)nn3c2-c2ccncc2)cc1 [Nr. 24]"
  test_system: "p38α (Homo sapiens, UniProt Q16539)"
  IC50: "0.022 µM"
- compound: "Cc1cc(-c2cn(C)nc2-c2ccc(F)cc2)ccn1 [Nr. 19]"
  test_system: "p38α (Homo sapiens, UniProt Q16539)"
  IC50: "0.449 µM"
- compound: "Fc1ccc(-c2nc3ccc(N4CCNC5(CC5)C4)nn3c2-c2ccncc2)cc1 [Nr. 21]"
  test_system: "p38α (Homo sapiens, UniProt Q16539)"
  IC50: "0.029 µM"
